- Subject of test: furin, P09958
- Sequence (P09958 whole entry): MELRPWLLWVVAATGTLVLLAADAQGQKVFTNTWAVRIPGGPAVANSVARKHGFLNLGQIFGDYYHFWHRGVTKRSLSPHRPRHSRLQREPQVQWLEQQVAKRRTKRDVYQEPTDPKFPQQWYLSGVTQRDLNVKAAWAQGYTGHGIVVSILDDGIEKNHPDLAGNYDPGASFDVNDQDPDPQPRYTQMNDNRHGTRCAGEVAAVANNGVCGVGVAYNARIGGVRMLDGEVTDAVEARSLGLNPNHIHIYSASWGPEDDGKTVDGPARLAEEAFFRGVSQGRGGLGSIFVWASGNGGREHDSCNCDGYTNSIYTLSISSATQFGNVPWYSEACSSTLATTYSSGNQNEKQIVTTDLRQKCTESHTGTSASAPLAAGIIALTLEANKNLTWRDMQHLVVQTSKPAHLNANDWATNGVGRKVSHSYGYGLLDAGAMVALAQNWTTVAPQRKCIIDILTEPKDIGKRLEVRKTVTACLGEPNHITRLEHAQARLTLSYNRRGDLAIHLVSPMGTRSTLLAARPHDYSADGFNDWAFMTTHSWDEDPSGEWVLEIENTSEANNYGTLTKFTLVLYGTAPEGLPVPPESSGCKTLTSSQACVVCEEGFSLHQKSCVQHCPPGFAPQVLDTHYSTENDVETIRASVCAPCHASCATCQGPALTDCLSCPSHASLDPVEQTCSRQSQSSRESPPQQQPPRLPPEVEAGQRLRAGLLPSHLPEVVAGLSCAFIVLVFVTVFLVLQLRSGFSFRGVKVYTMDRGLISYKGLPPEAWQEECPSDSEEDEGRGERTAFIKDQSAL
- Assay text: furin cleavage Z-score vs untreated control; higher = more cleavage, active = 3.5 or more, inactive = 1 or less, 8 variable residues between constant flanks;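 note: purified furin at 1:10 enzyme:substrate in 50 mM HEPES pH 7.5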
- Measurement conditions: 15 min
The other results are listed elsewhere or left out. The hit rate among all sequences tested is not known here.
Can you tell me furin cleavage Z-score for the items I'm about to list?
Just the number, please, no unit after it.

-- ask Give furin cleavage Z-score for CAMGECSQHLAGNASASA [HC1696]
-- reply 0.612

-- ask Retrieve furin cleavage Z-score measured for CAEVAASCGGAGNASASA [HC567] and print it.
-- reply -0.994

-- ask Give recorded furin cleavage Z-score. CAYLRRRRRVAGNASASA [FS-391]
-- reply 10.2

-- ask Return the recorded furin cleavage Z-score value; entry: CARRRRSSSVAGNASASA [FS-2299]
-- reply 3.17

-- ask For the sequence CARRNRSTSTAGNASASA [FS-2072] , give its reported furin cleavage Z-score.
-- reply 6.96

-- ask Please report the measured furin cleavage Z-score for CAQLSAPSLKAGNASASA [HC1263]
-- reply 0.729

-- ask Please supply the value of reported furin cleavage Z-score for the item CALRKRSSSTAGNASASA [FS-3179]
-- reply 0.0326

-- ask Give reported furin cleavage Z-score value for CADDEVVTSTAGNASASA [HC2291]
-- reply 0.354

-- ask Output measured furin cleavage Z-score for this item: CAGLGRRRRVAGNASASA [FS-1127]
-- reply 8.39

-- ask Determine from records and report furin cleavage Z-score for CATTPCSGSYAGNASASA [HC1929]
-- reply -0.574

-- ask Recall and state the measured furin cleavage Z-score for CADVSRARRVAGNASASA [FS-1519] .
-- reply 1.02

-- ask Look up and state reported furin cleavage Z-score for CARRRRSSSTAGNASASA [FS-3068]
-- reply 7.85

-- ask Specify furin cleavage Z-score for CATKLLLAVFAGNASASA [HC605] and stop.
-- reply 3.24

-- ask Please give the documented furin cleavage Z-score of CARRSRAASVAGNASASA [FS-1839]
-- reply 1.72

-- ask Give reported furin cleavage Z-score value for CAVVCCQMSYAGNASASA [HC119]
-- reply -0.183
